Ref: PubChem BioAssay (NCI)

For each entry below, report its TGI value.
Tested on: MDA-MB-231 breast
Assay: NCI tumour cell line growth inhibition, 48 h

Entry `COc1ccc(CN=CN/C(C#N)=C(\N)C#N)cc1OC` ; TGI = > 100 µM

// TGI value for `Cn1cnc([N+](=O)[O-])c1Sc1ncnc2nc[nH]c12` : > 100 µM

Lookup result for CC1CC[C@]2(C(=O)O)CCC3(C)C(=C2[C@H]1C)C=CC1[C@@]2(C)CC[C@H](O)C(C)(C)C2CC[C@]13C (stereo partly drawn) ; measured TGI: 70 µM

Lab note: `Cc1nn(-c2ccccc2)c(C)c1/C=N/NC(=O)c1sc(=S)n(-c2ccccc2)c1N` gave TGI of 7.78 µM

Input `CSc1n[n+](C)cc(N)c1N` . Output TGI: > 100 µM

Item: `CCOC(=O)/C(=C\c1ccc(CO)o1)P(=O)(OCC)OCC` | TGI: 93.5 µM

Record `CN(C)c1ccc(/C=N/NC2=N/C(=C\c3ccco3)C(=O)N2)cc1` , field TGI: > 100 µM

According to the records, this compound `COc1ccc2c(c1)CC[C@@H]1[C@@H]2CC[C@]2(C)/C(=N/OCCN3CCCCC3)CC[C@@H]12` displays TGI of 23.6 µM

Briefly, TGI measured for `O=C(N/N=C/c1ccc(F)cc1)c1[nH]c2ccc(I)cc2c1-c1ccccc1` : 6.82 µM

Sample `C=C(Br)CN(C#N)CC(=C)Br` ; TGI observed: > 100 µM

The measured TGI associated with `Nc1cc(CO)cc(Nc2c3ccccc3nc3occc23)c1` reads > 100 µM

response.value for COc1ccc([N+](=O)[O-])c2c(NCC(O)CO)ccnc12 (stereo not drawn) (field: TGI) = > 100 µM

Entry CC(NC(=O)c1ccc(OP(=O)(OCC2=CC(=O)c3ccccc3C2=O)N(C)CCCCCl)cc1)c1ccc(OCC2CCCCC2)c(C(N)=O)c1 (stereo not drawn) , TGI reported as 21.3 µM

Entry under test: O=C(O)C(Cc1ccc(O)c([N+](=O)[O-])c1)N1C(=O)c2ccccc2C1=O (stereo not drawn) . Its TGI was > 100 µM

Briefly, TGI measured for `O=S1(=O)c2ccccc2N2CCCc3cc(Cl)cc1c32` : > 100 µM

// sample `C=C[C@H]1CN2CC[C@H]1C[C@@H]2[C@@H](O)c1ccnc2ccccc12` , its TGI was > 100 µM

According to the records, this compound `Cc1cc(O)cc(C)c1/C=C/c1cncc(C(=O)N(C)C)c1` displays TGI of > 25 µM

TGI measured on `C/C(=N/O)c1cccc(Nc2nc3ccccc3c3[nH]c4ccccc4c23)c1` = 11.5 µM

Item: O=C1/C(=C/c2cccs2)N=C(c2ccccc2)N1C1Nc2cc3c(cc2S1)NC(N1C(=O)/C(=C/c2cccs2)N=C1c1ccccc1)S3 (stereo not drawn) | TGI: > 100 µM

// TGI value for `O=C(/C=C/c1ccc([N+](=O)[O-])o1)NNC(=O)c1cc2ccccc2cc1O` : > 100 µM

Query COC1CCC(OC2CC(C3(C)CCC4(CC(O)C(C)C(C(C)/C=C(\C)C(=O)C(C)CC(C)C(=O)O)O4)O3)OC3(OC(C4OC(O)(CO)C(C)CC4C)CC3C)C2C)OC1C (stereo not drawn) yields TGI of 0.517 µM

Form field TGI, entry `COc1ccc(N=C/C=C/Nc2ccc(OC)cc2)cc1` : 6.02 µM

Per the records, this compound ( Nc1ncnc2c1ncn2C1OC(C(=O)O)C(O)C1O (stereo not drawn) ) has TGI equal to > 100 µM
